So I've got a bunch of compounds here, and I need their GI50 values.
# System: CCRF-CEM leukemia
# protocol text: NCI tumour cell line growth inhibition, 48 h

Prompt: I'd like to know its GI50. The compound in question is COC(=O)/C=C/C=C(c1ccccc1)c1ccccc1
Response: 6.48 µM

Prompt: I'd like to know its GI50. The compound in question is Cc1sc(C(=O)Nc2cc(C(=O)NCCCN(C)C)n(C)c2)cc1NC(=O)CCCN1C(=O)c2cccc3cccc(c23)C1=O
Response: > 100 µM

Prompt: I'd like to know its GI50. The compound in question is Nc1cc2cccc[n+]2c2cc(Cl)ccc12
Response: 3.23 µM

Prompt: I'd like to know its GI50. The compound in question is COc1cccc(/C=C/C(=O)c2cccc(Nc3nc(Nc4ccccc4)nc(Nc4ccccc4)n3)c2)c1
Response: 5.26 µM

Prompt: I'd like to know its GI50. The compound in question is Cc1c(C(=O)/C=C/c2csc3ccccc23)[n+](=O)c2ccccc2n1[O-]
Response: 2.42 µM

Prompt: I'd like to know its GI50. The compound in question is Cc1ccc2c(ccc3c[n+]4c5ccccc5ccc4n32)c1
Response: 2.46 µM

Prompt: I'd like to know its GI50. The compound in question is CC/C=C\C=C/C(=O)N/C=C/CC1Cc2cccc(O)c2C(=O)O1 (configuration not stated)
Response: 15 µM

Prompt: I'd like to know its GI50. The compound in question is CN1CCN(CCc2cccc(C(=O)c3cnn(-c4ccc(F)cc4)c3N)c2)CC1
Response: > 25 µM

Prompt: I'd like to know its GI50. The compound in question is COc1ccc(N2C(C)=C(C#N)C34C(=O)N(c5ccccc5)C(=O)C3=C(O)C=CC24O)cc1 (configuration not stated)
Response: 3.09 µM

Prompt: I'd like to know its GI50. The compound in question is CCCCCCCCCC[C@H](O)[C@H]1CC[C@H]([C@H]2CC[C@H]([C@H](O)CC[C@H](O)CCCCCCC[C@@H](O)CC3=C[C@H](C)OC3=O)O2)O1
Response: 3.12 µM

Prompt: I'd like to know its GI50. The compound in question is COc1ccc2nc3cc([N+](=O)[O-])ccc3c(NCCCCCN(C)C)c2c1
Response: 0.295 µM

Prompt: I'd like to know its GI50. The compound in question is CNC(=O)c1cncc(/C=C/c2ccccc2C)c1
Response: > 25 µM
